Form field: IFN-γ, TL1A-costimulated lymphocytes, Fab 0.3 µg/mL (one value per entry).
Target: T1, human DR3 (full length, on cells) (human, UniProt Q93038 25-417)
T1 sequence: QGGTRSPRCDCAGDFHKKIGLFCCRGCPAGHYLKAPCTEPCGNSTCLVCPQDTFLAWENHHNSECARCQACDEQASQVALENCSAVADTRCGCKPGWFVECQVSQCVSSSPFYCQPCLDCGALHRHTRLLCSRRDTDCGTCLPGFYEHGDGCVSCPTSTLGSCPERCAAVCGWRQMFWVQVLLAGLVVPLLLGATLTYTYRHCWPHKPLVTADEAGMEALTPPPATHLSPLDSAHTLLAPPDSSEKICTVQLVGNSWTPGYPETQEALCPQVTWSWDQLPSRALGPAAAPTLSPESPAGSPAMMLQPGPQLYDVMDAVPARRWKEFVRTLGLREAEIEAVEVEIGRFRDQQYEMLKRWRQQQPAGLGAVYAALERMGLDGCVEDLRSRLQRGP
Experiment: cell-based or functional assay
The response must be a number in ng/mL with no trailing unit.

Solved entries:
Can you share its IFN-γ, TL1A-costimulated lymphocytes, Fab 0.3 µg/mL? I mean this binder: 0169 (humanized IgG1 Fab of 0072; HC T28A S49A Y91; LC Q3A T5A S60A M4L) (Fab, V domains shown) VH: EVQLVESGGGLVQPGGSLRLSCAASGFTFSNYDMSWVRQAAGKGLEWVSAFSSDGYTFYPGAVKGRFTISRENAKNSLYLQMNSLRAGDTAVYYCARHADYANYPVMDYWGQGTLVTVSS VL: DIALAQSPSSLSASVGDRVTITCRASKSVSTSGYSYMHWYQQKPGKAPKLLIYLASNLEAGVPSRFSGSGSGTDFTLTISSLQPEDFATYYCQHSRELPLTFGGGTKVEIK 31

Can you share its IFN-γ, TL1A-costimulated lymphocytes, Fab 0.3 µg/mL? I mean this binder: 0173 (humanized IgG1 Fab of 0072; HC T28A S49A Y91S; LC Q3A T5A S60A M4L) (Fab, V domains shown) VH: EVQLVESGGGLVQPGGSLRLSCAASGFTFSNYDMSWVRQAAGKGLEWVSAFSSDGYTFYPGAVKGRFTISRENAKNSLYLQMNSLRAGDTAVYYCARHADYANSPVMDYWGQGTLVTVSS VL: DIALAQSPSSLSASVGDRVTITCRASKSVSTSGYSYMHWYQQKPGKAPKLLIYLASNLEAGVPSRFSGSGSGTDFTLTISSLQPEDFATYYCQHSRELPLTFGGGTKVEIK 62

Can you share its IFN-γ, TL1A-costimulated lymphocytes, Fab 0.3 µg/mL? I mean this binder: 0170 (humanized IgG1 Fab of 0072; HC T28A S49A Y91; LC Q3A T5A S60A M4) (Fab, V domains shown) VH: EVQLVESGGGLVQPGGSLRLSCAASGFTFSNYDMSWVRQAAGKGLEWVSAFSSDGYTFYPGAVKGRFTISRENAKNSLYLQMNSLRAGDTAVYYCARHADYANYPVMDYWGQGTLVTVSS VL: DIAMAQSPSSLSASVGDRVTITCRASKSVSTSGYSYMHWYQQKPGKAPKLLIYLASNLEAGVPSRFSGSGSGTDFTLTISSLQPEDFATYYCQHSRELPLTFGGGTKVEIK 51

Continuing:
Can you share its IFN-γ, TL1A-costimulated lymphocytes, Fab 0.3 µg/mL? I mean this binder: 0171 (humanized IgG1 Fab of 0072 without back mutations) (Fab, V domains shown) VH: EVQLVESGGGLVQPGGSLRLSCAASGFTFSNYDMSWVRQATGKGLEWVSAFSSDGYTFYPGSVKGRFTISRENAKNSLYLQMNSLRAGDTAVYYCARHADYANYPVMDYWGQGTLVTVSS VL: DIQMTQSPSSLSASVGDRVTITCRASKSVSTSGYSYMHWYQQKPGKAPKLLIYLASNLESGVPSRFSGSGSGTDFTLTISSLQPEDFATYYCQHSRELPLTFGGGTKVEIK 62

Can you share its IFN-γ, TL1A-costimulated lymphocytes, Fab 0.3 µg/mL? I mean this binder: 0118 (chimeric Fab of 27F16, human IgG1 constant domain) (Fab, V domains shown) VH: EVQLVESGGDFVKPGGSLKLSCAASGFTFNNYGMSWVRQTPDKRLEWVAAISSGVTYTYYPDTVKGRFTISRDNAKNTLYLHMSSLKSEDTAMYYCGRHDDYGNHFDYWGQGTTLTVSS VL: DIVMTQSPSSLAMSLGQRVTMNCKSSQSLLNSHNQKNYLAWYQQKPGQSPKLLVYFASSRESGVPDRFIGSGSGTDFTLTISSVQAEDLADYFCQQHYSTPFTFGSGTKLEIKR 124
